# Tgt: Nitric oxide synthase 3 (Bos taurus, UniProt P29473)
# Sequence (P29473 whole entry): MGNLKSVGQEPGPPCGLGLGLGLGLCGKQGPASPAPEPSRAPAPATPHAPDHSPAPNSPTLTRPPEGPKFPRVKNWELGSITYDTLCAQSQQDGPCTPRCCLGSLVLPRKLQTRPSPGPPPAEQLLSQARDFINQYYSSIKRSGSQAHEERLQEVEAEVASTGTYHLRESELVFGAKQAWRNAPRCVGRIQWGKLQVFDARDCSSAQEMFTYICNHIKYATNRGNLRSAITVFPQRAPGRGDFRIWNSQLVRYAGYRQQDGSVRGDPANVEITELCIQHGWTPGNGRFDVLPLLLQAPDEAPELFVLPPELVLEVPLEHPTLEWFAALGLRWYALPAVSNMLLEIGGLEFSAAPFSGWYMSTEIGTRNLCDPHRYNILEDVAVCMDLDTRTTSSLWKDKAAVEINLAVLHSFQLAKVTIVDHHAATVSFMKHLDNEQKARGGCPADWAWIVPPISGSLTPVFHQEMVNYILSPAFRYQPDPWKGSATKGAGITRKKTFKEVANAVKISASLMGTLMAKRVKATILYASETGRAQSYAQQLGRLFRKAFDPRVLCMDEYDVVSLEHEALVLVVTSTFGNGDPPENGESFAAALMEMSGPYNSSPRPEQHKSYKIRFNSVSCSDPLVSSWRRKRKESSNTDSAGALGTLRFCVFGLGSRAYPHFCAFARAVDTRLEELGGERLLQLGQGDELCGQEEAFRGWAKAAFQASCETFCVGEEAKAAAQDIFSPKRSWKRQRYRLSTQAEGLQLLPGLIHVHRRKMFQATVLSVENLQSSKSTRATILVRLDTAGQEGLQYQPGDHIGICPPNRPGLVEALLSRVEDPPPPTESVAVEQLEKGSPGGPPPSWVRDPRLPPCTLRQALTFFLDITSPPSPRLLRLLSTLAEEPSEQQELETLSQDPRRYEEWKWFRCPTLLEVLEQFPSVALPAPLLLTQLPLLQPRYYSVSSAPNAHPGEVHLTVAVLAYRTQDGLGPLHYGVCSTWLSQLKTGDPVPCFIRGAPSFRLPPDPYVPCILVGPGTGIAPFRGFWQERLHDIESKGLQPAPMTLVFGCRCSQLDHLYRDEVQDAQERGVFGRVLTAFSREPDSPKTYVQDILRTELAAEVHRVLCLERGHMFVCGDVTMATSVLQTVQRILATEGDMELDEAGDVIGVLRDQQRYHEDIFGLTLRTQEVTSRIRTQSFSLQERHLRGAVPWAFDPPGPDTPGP
Measured Quantity: pKi
pKi here: minus log base 10 of the concentration, concentration in moles per litre.

>>> number("Cc1ccnc(CCc2cccc([C@H](N)Cc3cc(C)cc(N)n3)c2)c1")
2.98

Alright, here's another molecule for you.
I would be grateful if you could share the reported pKi for Cc1cc(N)nc(CCc2cccc(C(O)Cc3cc(C)cc(N)n3)c2)c1 (configuration not stated) .
5.44

* * *

# Tgt: UniProt P29476
# Sequence (P29476 whole entry): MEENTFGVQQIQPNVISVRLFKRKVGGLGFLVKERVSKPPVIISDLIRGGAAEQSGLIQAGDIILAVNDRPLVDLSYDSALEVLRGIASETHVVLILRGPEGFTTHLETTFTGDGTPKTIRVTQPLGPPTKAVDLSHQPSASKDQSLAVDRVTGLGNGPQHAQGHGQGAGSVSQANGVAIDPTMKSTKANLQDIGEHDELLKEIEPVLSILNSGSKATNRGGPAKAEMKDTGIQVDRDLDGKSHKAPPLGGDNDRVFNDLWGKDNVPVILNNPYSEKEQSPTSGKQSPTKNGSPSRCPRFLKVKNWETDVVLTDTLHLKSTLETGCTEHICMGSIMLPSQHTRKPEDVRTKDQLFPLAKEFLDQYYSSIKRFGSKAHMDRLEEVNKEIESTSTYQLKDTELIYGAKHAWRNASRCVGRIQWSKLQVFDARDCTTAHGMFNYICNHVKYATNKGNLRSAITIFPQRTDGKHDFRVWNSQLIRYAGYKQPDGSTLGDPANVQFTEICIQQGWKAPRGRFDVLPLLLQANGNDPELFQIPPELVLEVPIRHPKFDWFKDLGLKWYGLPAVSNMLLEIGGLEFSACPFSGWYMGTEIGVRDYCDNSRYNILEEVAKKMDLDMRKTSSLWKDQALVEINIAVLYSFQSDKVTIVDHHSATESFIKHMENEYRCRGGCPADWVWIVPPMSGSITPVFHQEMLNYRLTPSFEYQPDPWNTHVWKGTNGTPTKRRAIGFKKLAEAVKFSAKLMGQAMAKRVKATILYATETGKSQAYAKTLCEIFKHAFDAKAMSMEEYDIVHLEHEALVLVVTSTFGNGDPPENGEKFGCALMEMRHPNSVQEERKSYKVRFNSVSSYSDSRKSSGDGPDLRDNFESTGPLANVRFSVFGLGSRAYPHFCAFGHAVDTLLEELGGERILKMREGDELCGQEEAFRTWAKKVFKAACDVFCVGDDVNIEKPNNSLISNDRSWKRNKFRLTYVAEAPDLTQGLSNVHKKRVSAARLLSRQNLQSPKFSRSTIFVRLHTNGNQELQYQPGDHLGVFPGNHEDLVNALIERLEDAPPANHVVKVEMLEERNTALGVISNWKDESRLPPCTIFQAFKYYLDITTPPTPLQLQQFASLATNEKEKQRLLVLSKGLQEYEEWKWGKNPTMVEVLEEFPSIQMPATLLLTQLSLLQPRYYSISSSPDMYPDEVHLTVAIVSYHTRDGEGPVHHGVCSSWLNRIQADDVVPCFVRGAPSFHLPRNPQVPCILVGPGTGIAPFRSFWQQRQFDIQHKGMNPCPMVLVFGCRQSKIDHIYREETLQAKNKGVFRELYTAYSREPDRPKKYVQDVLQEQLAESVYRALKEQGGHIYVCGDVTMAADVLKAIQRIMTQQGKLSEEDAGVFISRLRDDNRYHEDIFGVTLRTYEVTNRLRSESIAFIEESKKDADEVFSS
Measured Quantity: Ki
Number plus unit, in that order.

I would be grateful if you could share the reported Ki for Cc1cc(N)nc(CCc2cccc(C(O)Cc3cc(C)cc(N)n3)c2)c1 (stereo unspecified) .
70 nM

* * *

# Ki per record follows
# Tgt: UniProt P29477
# Sequence (P29477 whole entry): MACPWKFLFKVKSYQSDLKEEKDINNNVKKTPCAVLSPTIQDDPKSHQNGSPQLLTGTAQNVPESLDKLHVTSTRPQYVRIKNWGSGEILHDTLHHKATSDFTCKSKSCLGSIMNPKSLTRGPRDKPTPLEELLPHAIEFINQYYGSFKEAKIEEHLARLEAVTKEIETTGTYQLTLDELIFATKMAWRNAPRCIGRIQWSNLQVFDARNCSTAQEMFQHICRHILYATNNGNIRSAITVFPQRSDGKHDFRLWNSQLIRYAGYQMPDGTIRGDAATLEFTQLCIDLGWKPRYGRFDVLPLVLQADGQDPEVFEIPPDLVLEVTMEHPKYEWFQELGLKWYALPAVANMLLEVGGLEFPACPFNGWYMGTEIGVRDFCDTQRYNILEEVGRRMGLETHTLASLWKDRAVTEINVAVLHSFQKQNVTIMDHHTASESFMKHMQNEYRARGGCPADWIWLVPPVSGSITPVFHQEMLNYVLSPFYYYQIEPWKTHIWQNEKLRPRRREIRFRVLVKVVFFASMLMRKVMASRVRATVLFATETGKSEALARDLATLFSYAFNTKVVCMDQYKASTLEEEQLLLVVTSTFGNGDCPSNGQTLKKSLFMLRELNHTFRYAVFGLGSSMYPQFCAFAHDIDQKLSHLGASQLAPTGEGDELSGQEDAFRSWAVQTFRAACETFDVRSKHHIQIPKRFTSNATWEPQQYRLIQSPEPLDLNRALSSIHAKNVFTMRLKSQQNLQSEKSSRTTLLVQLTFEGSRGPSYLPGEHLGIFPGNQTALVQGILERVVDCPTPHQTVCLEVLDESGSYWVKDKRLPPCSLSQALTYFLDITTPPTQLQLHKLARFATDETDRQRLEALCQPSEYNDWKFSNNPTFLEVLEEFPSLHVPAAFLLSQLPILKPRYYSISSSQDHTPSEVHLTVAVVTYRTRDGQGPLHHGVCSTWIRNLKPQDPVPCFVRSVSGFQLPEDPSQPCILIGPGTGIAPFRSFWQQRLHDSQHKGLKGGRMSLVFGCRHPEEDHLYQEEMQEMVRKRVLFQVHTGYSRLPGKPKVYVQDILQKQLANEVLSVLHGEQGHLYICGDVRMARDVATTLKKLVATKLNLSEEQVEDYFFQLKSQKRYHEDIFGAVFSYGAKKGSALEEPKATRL
Answer with a number only, understood to be in µM.

>>> number("Cc1cc(N)nc(CCc2cccc(C(O)Cc3cc(C)cc(N)n3)c2)c1 (centres undefined)")
5.99

Alright, here's another compound for you.
I would be grateful if you could share the reported Ki for Cc1cc(N)nc(CCc2cccc(C(CN)Cc3cc(C)cc(N)n3)n2)c1 (racemic) .
17.9
